Origin of values: PubChem BioAssay (NCATS)

Measured Potency by item
testedSystem: Rap guanine nucleotide exchange factor 3 (Homo sapiens) (UniProt O95398)
assayComment: Counterscreen qHTS for agonist of cAMP-regulated guanine nucleotide exchange factor 3 (EPAC1) (AID 1645889); also: potency is read from the fitted curve at half-maximal effect; nearly all actives have a fitted effect of over 40% in size
measurementParameters: EPAC1 Rap1B-BODIPY-GDP exchange, fluorescence; series mostly up to 154 µM
Results filed as inconclusive are left out. The source made the active and inactive calls. Calls follow the shape of the dose curve; as a rule, active = well fitted activation curve with a large enough effect; inconclusive = small, poorly fitted or top-dose-only effect, or another doubt; inactive = no such curve, though single readings can be large or run the other way.
readoutLabel: Potency

INSERT INTO results (compound, readoutlabel, endpointvalue) VALUES
  ('COc1ccccc1N1N=C(C(=O)c2ccccc2)C2C(=O)N(c3ccc(Br)cc3)C(=O)C21 (stereo unspecified)', 'Potency', '17.8 µM (active)'),
  ('Cc1n[nH]c(C)c1N1C(=O)c2cccc3c(N4CCCCCC4)ccc(c23)C1=O', 'Potency', '12.6 µM (active)'),
  ('O=C(C1=NN(c2ccccc2)C2C(=O)N(c3ccccc3)C(=O)C12)c1ccccc1 (stereo unspecified)', 'Potency', '15.8 µM (active)'),
  ('Cc1nn(C)c(C)c1N1C(=O)c2cccc3c(N)ccc(c23)C1=O', 'Potency', '11.2 µM (active)'),
  ('CC1=Nc2ccccc2/C1=C\c1nc(-c2ccc(F)cc2)oc1O', 'Potency', '25.1 µM (active)'),
  ('O=C1c2cccc3c(N4CCCCC4)ccc(c23)C(=O)N1c1cccc(O)c1', 'Potency', '50.1 µM (active)'),
  ('Oc1ccc2ccc3cccc[n+]3c2c1', 'Potency', '39.8 µM (active)'),
  ('Cc1nnc(SCC(=O)Nc2sccc2C#N)s1', 'Potency', '0.0178 µM (active)'),
  ('CCN(CC)c1ccc2cc(-c3nc(-c4cccs4)no3)c(=O)oc2c1', 'Potency', '79.4 µM (active)'),
  ('Cc1ccc(N2C(=O)c3cccc4c(N)ccc(c34)C2=O)c2cccnc12', 'Potency', '10 µM (active)'),
  ('CCN(CC)c1ccc2cc(C=O)c(=O)oc2c1', 'Potency', '12.6 µM (active)');
